Please go through the items and note down their Activity.
Test system: Pseudomonas aeruginosa
Assay: Antibacterial activity against Pseudomonas aeruginosa ATCC 10145 after 3 mins.
Assay type: functional
Numbers only, in µg/mL.

# count of solved cases: 4
Cl.N=C(NCc1ccc(Cl)c(Cl)c1)NC(=N)Nc1ccc(Cl)c(Cl)c1 | 10
CCCCCC/N=C(N)/N=C(\N)NCc1ccc(Cl)c(Cl)c1.Cl | 50
CCCCCCCCCCCC/N=C(N)/N=C(\N)NCc1ccc(Cl)c(Cl)c1.Cl | 100
Cl.N=C(NCc1ccc(Cl)c(Cl)c1)NC(=N)Nc1ccc(Cl)cc1 | 50

Below are some compounds; for each one, tell me its Activity.
1. CCCCCC/N=C(N)/N=C(\N)Nc1ccc(Cl)cc1.Cl
2. CCCCCC/N=C(N)/N=C(\N)NCc1ccc(Cl)cc1.Cl

Output:
20
50

---

System: Burkholderia cepacia
Assay: Antibacterial activity against Burkholderia cepacia 10 after 3 mins.
Assay type: functional
Measured Quantity: Activity (µg/mL)
One number for each entry, in µg/mL.

Cl.N=C(NCc1ccc(Cl)c(Cl)c1)NC(=N)Nc1ccc(Br)cc1 | 20
CCCCCCCCCC/N=C(N)/N=C(\N)NCc1ccc(Cl)c(Cl)c1.Cl | 100
CCCCCC/N=C(N)/N=C(\N)Nc1ccc(Cl)cc1.Cl | 100

The following molecules each have a reported value; give each one's Activity.
1. CCCCCCCCCC/N=C(N)/N=C(\N)Nc1ccc(Cl)c(Cl)c1.Cl
2. CCCCCC/N=C(N)/N=C(\N)NCc1ccc(Cl)c(Cl)c1.Cl

Output:
1. 100
2. 100

---

Test system: Pseudomonas aeruginosa
Experiment: Antibacterial activity against Pseudomonas aeruginosa ATCC 10145 after 3 mins.
Assay type: functional
Measured Quantity: Activity (µg/mL)
Answers are plain numbers, in µg/mL.

CCCCCCCCCC/N=C(N)/N=C(\N)Nc1ccc(Cl)c(Cl)c1.Cl | 100
CCCCCCCCCCCC/N=C(N)/N=C(\N)Nc1ccc(Cl)c(Cl)c1.Cl | 20
CCCCCCCC/N=C(N)/N=C(\N)Nc1ccc(Cl)c(Cl)c1.Cl | 50
N=C(NCCCCCCNC(=N)NC(=N)Nc1ccc(Cl)cc1)NC(=N)Nc1ccc(Cl)cc1 | 100
Cl.N=C(NCc1ccc(Cl)c(Cl)c1)NC(=N)Nc1ccc(Br)cc1 | 20

Please go through the list and note Activity for each compound.
1. CCCCCC/N=C(N)/N=C(\N)Nc1ccc(Cl)c(Cl)c1.Cl
2. CCCCCCCCCC/N=C(N)/N=C(\N)NCc1ccc(Cl)c(Cl)c1.Cl

Output:
[20, 100]

---

Tested on: Burkholderia cepacia
Assay: Antibacterial activity against Burkholderia cepacia 10 after 3 mins.
Format: functional
For each record, write down the corresponding Activity.
Numbers only, in µg/mL.

Reference set (2 entries):
CCCCCC/N=C(N)/N=C(\N)NCc1ccc(Cl)cc1.Cl | 100
Cc1ccc(NC(=N)/N=C(\N)NCc2ccc(Cl)c(Cl)c2)cc1C.Cl | 20

Now look at this entry.
Task: Which Activity value belongs to CCCCCC/N=C(N)/N=C(\N)Nc1ccc(Cl)c(Cl)c1.Cl ?
Output: 20

---

Tested on: Burkholderia cepacia
Assay: Antibacterial activity against Burkholderia cepacia 10 after 3 mins.
Format: functional
Measured Quantity: Activity

See these solved cases before continuing.
CCCCCCCCCCCC/N=C(N)/N=C(\N)NCc1ccc(Cl)c(Cl)c1.Cl | >500 µg/mL
CCCCCCCCCCCC/N=C(N)/N=C(\N)Nc1ccc(Cl)c(Cl)c1.Cl | >500 µg/mL
Cl.N=C(NCc1ccc(Cl)c(Cl)c1)NC(=N)Nc1ccc(I)cc1 | <=10 ug ml-1
Cl.N=C(NCc1ccc(Cl)c(Cl)c1)NC(=N)Nc1ccc(Cl)cc1Cl | <=10 ug ml-1

Task: State the recorded Activity for this entry: Cl.N=C(NCc1ccc(Cl)c(Cl)c1)NC(=N)Nc1ccc(Cl)c(Cl)c1Cl
Output: <=10 ug ml-1
